- ASSAY SYSTEM: Left-right determination factor 2 (Homo sapiens)
- RUN DESCRIPTION: LEFTY2 binders on small-molecule microarrays, primary screen, biochemical, small-molecule microarray, 635 nm fluorescence scan (AID 1110)
- CONDITIONS USED: LEFTY2 binding, higher = more signal
Exercise: for every item that follows, state its recorded composite z-score.
# print the numeric value only

Query: Returns the measured composite z-score for the input molecule. Input: CON=C(C)CCN1CCCc2nc(C)c(C)cc21
Response: 0.685

Query: Value lookup for composite z-score; key = C[C@]12CCC3c4ccc(OCC5CO5)cc4CCC3C1CC[C@@H]2O (stereo partly specified)
Response: 0.242

Query: Fill blank: measured composite z-score of the molecule COc1ccc(-c2cnnc(CCCn3ccnc3-c3ccccc3)n2)cc1 is ____.
Response: 0.774

Query: Returns the measured composite z-score for the input molecule. Input: C[C@@H](c1ccccc1)N1C(=O)[C@H]2[C@H]3[C@H](O)[C@H](O)CC(=NNC(=O)OCc4ccccc4)[C@@H]3CC[C@H]2C1=O
Response: 1.17

Query: Form field: reported composite z-score of CC#CCOCCC=C1c2ccccc2[C@@H](OC)[C@@H]1C
Response: 0.0778

Query: May I ask what composite z-score has been recorded for O=C1[C@H]2[C@H]3[C@H](O)[C@H](O)CC(=NO[C@@H]4O[C@H](CO)[C@@H](O)[C@H](O)[C@H]4O)[C@@H]3CC[C@H]2C(=O)N1c1cccc(Oc2ccccc2)c1 ?
Response: 0.982

Query: Given the molecule COc1ccc(OC[C@@H]2CC3[C@@H](c4ccc(Br)cc4)[C@H](C)CC[C@H]3C(=O)O2)cc1 (stereo partly specified) , what is its reported composite z-score?
Response: 0.418

Query: Suppose we examine the molecule CC(C)[C@@H](OCc1ccccc1)[C@H](C)C=NO[C@@H](C)c1cn([C@H](CO)Cc2ccccc2)nn1 ; what composite z-score value has been reported?
Response: 0.277

Query: Reported composite z-score for CO[C@@H]1COC(=O)CC=C[C@H](C)[C@H](OC)COC(=O)[C@@H]2CCCN2C(=O)CC=C[C@H]1C : what is it?
Response: 1.31

Query: Could you share which composite z-score value was measured for C=CC[C@@H]1C=C[C@H](Oc2ccc(C)cc2)[C@@H](COC(=O)NCc2cccc3ccccc23)O1 ?
Response: 0.129

Query: Please give the measured composite z-score for this molecule: COC(=O)CC=C[C@@H](C)[C@@H](C=NOC(C)CN1CCCCc2nc(C)c(C)cc21)NS(=O)(=O)c1ccc(C)cc1 (stereo partly specified)
Response: 0.614

Query: Please report the recorded composite z-score for CCOC(=O)NN=C1C[C@@H](O)[C@@H](O)[C@@H]2[C@@H]3C(=O)N(c4ccc(F)cc4F)C(=O)[C@@H]3CC[C@H]12 .
Response: 0.42

Query: Which value of composite z-score has been reported for C=CC[C@@H]1C=C[C@H](ON=C(C)CCN2CCCCc3nc(C)c(C)cc32)[C@@H](CO)O1 in the records?
Response: 1.25

Query: Consider the molecule shown here: C[C@@H]1C=CCC(=O)OC[C@H](C)C(=O)N[C@@H](Cc2ccccc2)C(=O)OC1 What is its recorded composite z-score?
Response: 0.786

Query: Given the molecule C=CC[C@@H]1C=C[C@H](ON=CC[C@@H]2C=C[C@H](OC(C)=O)[C@@H](COC(C)=O)O2)[C@@H](CO)O1 , what is its reported composite z-score?
Response: 0.514

Query: Value lookup for composite z-score; key = C#CCCCON=C1[C@H]2CCn3c(=O)n([C@@H](CC)c4ccccc4)c(=O)n3[C@H]2[C@H](O)[C@@H]2O[C@H]12
Response: 0.0878

Query: What measured composite z-score goes with O=C(NN=C1C[C@@H](O)[C@@H](O)[C@@H]2[C@@H]3C(=O)N(Cc4ccc5c(c4)OCO5)C(=O)[C@@H]3CC[C@@H]12)OCc1ccccc1 ?
Response: 0.0764

Query: Recorded composite z-score for CCN1C(=O)[C@H]2[C@H]3[C@H](O)[C@H](O)CC(=NOCC[C@@H]4C=C[C@H](OC(C)=O)[C@@H](COC(C)=O)O4)[C@@H]3CC[C@H]2C1=O , please?
Response: 0.736

Query: Consider the molecule CCN1C(=O)[C@H]2[C@H]3[C@H](O)[C@H](O)CC(=NO[C@@H]4O[C@H](CO)[C@@H](O)[C@H](O)[C@H]4O)[C@H]3CC[C@H]2C1=O and give its measured composite z-score.
Response: 0.486

Query: Requested field: composite z-score. Item: CCN1C(=O)[C@H]2[C@H]3[C@H](O)[C@H](O)CC(=NOC(C)CN4CCCc5nc(C)c(C)cc54)[C@@H]3CC[C@H]2C1=O (stereo partly specified)
Response: 0.803

Query: Which value of composite z-score has been reported for COC(=O)[C@@H]1CC[C@H](C)[C@@H](c2ccc(C)cc2)N1C(=O)c1ccc(C=NOC[C@H]2O[C@H](c3ccccc3)C=C[C@@H]2Oc2ccc(OC)cc2)cc1 in the records?
Response: 0.35

Query: Entry O=C1CCCC=C1C(O)C1CCCCC1 (stereo unspecified) has what composite z-score?
Response: -0.0231

Query: Suppose we examine the molecule CCOC(=O)[C@H](CC(C)C)NC(=O)CCC1CC(OC(=O)NCCc2ccc(F)cc2)CC2(CCCC(COC(=O)NCc3cccc4ccccc34)O2)O1 (stereo partly specified) ; what composite z-score value has been reported?
Response: 0.824

Query: Request the reported composite z-score associated with CC(C)=NO[C@@H](C)c1cn([C@H](CO)Cc2ccccc2)nn1
Response: 0.802

Query: Entry CCc1cc2c(nc1CC)CCN(CCC(C)=NOC(C)CN1CCCCc3nc(C)c(C)cc31)C2 (stereo unspecified) : reported composite z-score = ?
Response: 0.772

Query: Could you tell me which composite z-score is on file for COc1ccc(O[C@H]2C=C[C@@H](c3ccccc3)O[C@@H]2CON=C2c3cc(OC)ccc3O[C@H](c3cccc(OC)c3)[C@H]2O)cc1 ?
Response: 0.804

Query: composite z-score for CCOC(=O)[C@H](CC(C)C)NC(=O)CCC1CC(OC(=O)NCCc2ccc(F)cc2)CC2(CCCC(COC(=O)NCc3cccc(C(F)(F)F)c3)O2)O1 (stereo partly specified) ?
Response: 0.605

Query: Fill in: composite z-score of Cc1ccc2[nH]c3nc(CCCn4ccnc4-c4ccccc4)nnc3c2c1 is ___
Response: 0.635

Query: Record request: composite z-score value, item COC(=O)CC=C1c2ccccc2[C@H](OC)[C@H]1C
Response: 0.398

Query: Looking for the measured composite z-score of CCN1C(=O)[C@H]2[C@H]3[C@H](O)[C@H](O)CC(=NO[C@@H]4O[C@H](COC(C)=O)[C@@H](OC(C)=O)[C@H](OC(C)=O)[C@H]4OC(C)=O)[C@@H]3CC[C@H]2C1=O , can you help?
Response: 0.671

Query: # query: composite z-score of entry O=C1CCCC=C1C(O)COCc1ccccc1 (stereo unspecified)
Response: -0.0061

* * *

- Tested on: PRMT1 (protein arginine N-methyltransferase 1)
- RUN DESCRIPTION: PRMT1 binders on small-molecule microarrays, primary screen, biochemical, small-molecule microarray, 635 nm fluorescence (AID 1088);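 also: binding of Prmt1 protein to compounds spotted on small-molecule microarray slides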
- CONDITIONS USED: small-molecule microarray binding, higher = more signal
OUTCOME MEASURE: composite z-score
Could you respond with only the numeric value?

Query: Quick one: composite z-score of O=C1C2=CC[C@H]3C(=O)N(Cc4ccccc4)C(=O)[C@H]3[C@H]2[C@H](O)[C@@H]2O[C@H]12 ?
Response: 0.0864

Query: Look at this molecule and give its reported composite z-score. CCOC(=O)CCN1C(=O)[C@H]2[C@H]3[C@H](O)[C@H](O)CC(=NNC(=O)OCc4ccccc4)[C@H]3CC[C@H]2C1=O
Response: -0.0993

Query: So what's the measured composite z-score for this one? O=C(NCCC[N+]1=CC=NC1c1ccccc1)N1CCCc2nc(-c3ccc(Br)cc3)ccc21 (centres undefined)
Response: -0.476

Query: Given CN1CCc2nc(-c3ccccc3)c(-c3ccccc3)cc2C1 , state its recorded composite z-score.
Response: -0.288

Query: Given C[C@H]1C=CCC(=O)OC[C@H](C)C(=O)N2CCC[C@H]2C(=O)OC1 , state its recorded composite z-score.
Response: 1.54

Query: Dear colleague, I am looking for the recorded composite z-score of the following molecule: O=C1[C@H]2[C@H]3[C@H](O)[C@H](O)CC(=NO[C@@H]4O[C@H](CO)[C@@H](O)[C@H](O)[C@H]4O)[C@@H]3CC[C@H]2C(=O)N1c1cccc(Oc2ccccc2)c1
Response: -0.175

Query: What composite z-score value was documented for this molecule, COc1ccc(O[C@H]2C=C[C@@H](C#Cc3ccccc3)O[C@@H]2CO)cc1 ?
Response: 0.718

Query: Item under review: CO[C@H]1COC(=O)CC=C[C@@H](C)COC(=O)[C@H]2CCCN2C(=O)CC=C[C@H]1C . Reported composite z-score?
Response: 1.55

Query: Requested read-out: composite z-score. Entry: CC(=O)OC[C@H]1O[C@H](CCON=C(C)CCN2CCCc3nc(C)c(C)cc32)C=C[C@@H]1OC(C)=O
Response: 1.54

Query: Would you kindly share the measured composite z-score for CCN(CC)CC(O)CN1CCCCc2nc(C)c(C)cc21 (centres undefined) ?
Response: 0.357

Query: I have this molecule here, C=CC[C@@H]1C=C[C@H](ON=C[C@@H](NS(=O)(=O)c2ccc(C)cc2)[C@H](C)C=CCC(=O)OC)[C@@H](CO)O1 , and I need its recorded composite z-score.
Response: -0.248

Query: Can you share its composite z-score? I mean this molecule: C[C@H]1CC[C@H]2C(=O)OC(COc3ccc(C(C)(C)C)cc3)CN2[C@@H]1c1ccc(Br)cc1 (some centres undefined)
Response: 1.02

Query: Given COc1ccc(O[C@H]2C=C[C@@H](c3ccccc3)O[C@@H]2CON=C(C)CCN2CCCc3nc(C)c(C)cc32)cc1 , state its recorded composite z-score.
Response: 1.42

Query: What does the data say about its composite z-score? Entry: COC(=O)CC=C[C@@H](C)[C@@H](C=NOC[C@@H](C)[C@H](OCc1ccccc1)C(C)C)OC
Response: 0.823
